# assay overview: Half life in cynomolgus monkey at 1 mg/kg, iv
# Type: ADME, organism-based, Macaca fascicularis
# Set-up: dose 1 mg/kg, route intravenous
# assay setup: in vivo
property name: half-life (h)

{"smiles str": "COc1cc2c(cc1OC)[C@@H]1C[C@H](N)[C@@H](N3C[C@@H](CF)CC3=O)CN1CC2", "recorded measurement": 6.8}
{"smiles str": "COc1cc2c(cc1OC)[C@@H]1C[C@H](N)[C@@H](N3CCCCC3=O)CN1CC2", "recorded measurement": 9.4}

----------
# assay overview: Clearance in Wistar rat at 1 mg/kg, iv
# Type: ADME, organism-based
# Parameters: dose 1 mg/kg, route intravenous
# assay setup: in vivo
property name: clearance (L/h/kg)

{"smiles str": "COc1cc2c(cc1OC)[C@@H]1C[C@H](N)[C@@H](N3C[C@@H](CF)CC3=O)CN1CC2", "readout unit": "L/h/kg", "clearance": 1.44}
{"smiles str": "COc1cc2c(cc1OC)[C@@H]1C[C@H](N)[C@@H](N3CCCCC3=O)CN1CC2", "readout unit": "L/h/kg", "clearance": 1.5}

----------
# assay overview: Volume of distribution at steady state in Wistar rat at 1 mg/kg, iv
# Format: ADME, organism-based
# Set-up: dose 1 mg/kg, route intravenous
# assay setup: in vivo, read-out: Vdss
property name: Vd (L/kg)

{"molecule": "COc1cc2c(cc1OC)[C@@H]1C[C@H](N)[C@@H](N3C[C@@H](CF)CC3=O)CN1CC2 [CARMEGLIPTIN]", "Vd (L/kg)": 6.3}
{"molecule": "COc1cc2c(cc1OC)[C@@H]1C[C@H](N)[C@@H](N3CCCCC3=O)CN1CC2", "Vd (L/kg)": 5.9}

----------
# assay overview: Permeability coefficient by PAMPA
# Assay type: ADME
property name: permeability (×10⁻⁶ cm/s)

Before answering, review these 2 worked examples.
{"molecule": "COc1cc2c(cc1OC)C1CC(N)C(N3CCCOC3=O)CN1CC2 (stereo not given)", "readout unit": "×10⁻⁶ cm/s", "recorded measurement": 0.1}
{"molecule": "COc1cc2c(cc1OC)[C@@H]1C[C@H](N)[C@@H](N3C[C@H](C)CC3=O)CN1CC2", "readout unit": "×10⁻⁶ cm/s", "recorded measurement": 0.8}

1. COc1cc2c(cc1OC)C1CC(N)C(N3CCC(C)CC3=O)CN1CC2 (stereo not given)
2. CCC1CC(=O)N(C2CN3CCc4cc(OC)c(OC)cc4C3CC2N)C1 (stereo not given)
Input line: Between 1 and 2 , whose measured permeability reads higher? Identify your selection by its label.
Output line: 2

P. COc1cc2c(cc1OC)C1CC(N)C(N3CCCC3=O)CN1CC2 (stereo not given)
Q. COc1cc2c(cc1OC)C1CC(N)C(N3CC(C)CCC3=O)CN1CC2 (stereo not given)
R. COc1cc2c(cc1OC)[C@@H]1C[C@H](N)[C@@H](N3CCCCC3=O)CN1CC2
S. COc1cc2c(cc1OC)C1CC(N)C(N3CCOC3=O)CN1CC2 (stereo not given)
T. COc1cc2c(cc1OC)[C@@H]1C[C@H](N)[C@@H](N3C[C@H](CF)CC3=O)CN1CC2
Input line: List the 5 entries from lowest permeability to highest permeability value. List the labels in the requested order.
Output line: S, R, T, P, Q

I. COc1cc2c(cc1OC)[C@@H]1C[C@H](N)[C@@H](N3C[C@@H](C)CC3=O)CN1CC2
II. COc1cc2c(cc1OC)C1CC(N)C(N3CC(C)CC3=O)CN1CC2 (stereo not given)
Input line: Between I and II , whose measured permeability reads higher? Identify your selection by its label.
Output line: I

----------
# assay overview: Distribution coefficient, log D at pH 7.4
# Format: physicochemical
# assay setup: octanol/water
property name: logD

Before answering, review these 3 worked examples.
{"compound": "COc1cc2c(cc1OC)C1CC(N)C(N3CC(C)CCC3=O)CN1CC2 (stereo not given)", "logD": 0}
{"compound": "COc1cc2c(cc1OC)C1CC(N)C(N3CCC(C)CC3=O)CN1CC2 (stereo not given)", "logD": -0.2}
{"compound": "COc1cc2c(cc1OC)C1CC(N)C(N3CCCCC3=O)CN1CC2 (stereo not given)", "logD": -0.5}

1. COc1cc2c(cc1OC)C1CC(N)C(N3CC(C)CC3=O)CN1CC2 (stereo not given)
2. CCC1CC(=O)N(C2CN3CCc4cc(OC)c(OC)cc4C3CC2N)C1 (stereo not given)
Input line: Between 1 and 2 , whose measured logD reads higher? Identify your selection by its label.
Output line: 2
(2: -0.1, 1: -0.2)

----------
# assay overview: Oral bioavailability in cynomolgus monkey at 3 mg/kg
# Type: ADME, organism-based, Macaca fascicularis
# assay setup: in vivo
property name: bioavailability (%)

P. COc1cc2c(cc1OC)[C@@H]1C[C@H](N)[C@@H](N3CCCCC3=O)CN1CC2
Q. COc1cc2c(cc1OC)[C@@H]1C[C@H](N)[C@@H](N3C[C@@H](CF)CC3=O)CN1CC2
Input line: Between P and Q , whose measured bioavailability reads higher? Identify your selection by its label.
Output line: P

----------
# assay overview: Volume of distribution at steady state in cynomolgus monkey at 1 mg/kg, iv
# Assay type: ADME, organism-based, Macaca fascicularis
# Set-up: dose 1 mg/kg, route intravenous
# assay setup: in vivo, read-out: Vdss
property name: Vd (L/kg)

a. COc1cc2c(cc1OC)[C@@H]1C[C@H](N)[C@@H](N3CCCCC3=O)CN1CC2
b. COc1cc2c(cc1OC)[C@@H]1C[C@H](N)[C@@H](N3C[C@@H](CF)CC3=O)CN1CC2
Input line: Just tell me: smaller Vd value, a or b ? Identify your selection by its label.
Output line: b
(b: 3.3 L/kg, a: 8.6 L/kg)

----------
# target or test system: hERG (KCNH2) (Homo sapiens, UniProt Q12809)
# Sequence (Q12809 whole entry): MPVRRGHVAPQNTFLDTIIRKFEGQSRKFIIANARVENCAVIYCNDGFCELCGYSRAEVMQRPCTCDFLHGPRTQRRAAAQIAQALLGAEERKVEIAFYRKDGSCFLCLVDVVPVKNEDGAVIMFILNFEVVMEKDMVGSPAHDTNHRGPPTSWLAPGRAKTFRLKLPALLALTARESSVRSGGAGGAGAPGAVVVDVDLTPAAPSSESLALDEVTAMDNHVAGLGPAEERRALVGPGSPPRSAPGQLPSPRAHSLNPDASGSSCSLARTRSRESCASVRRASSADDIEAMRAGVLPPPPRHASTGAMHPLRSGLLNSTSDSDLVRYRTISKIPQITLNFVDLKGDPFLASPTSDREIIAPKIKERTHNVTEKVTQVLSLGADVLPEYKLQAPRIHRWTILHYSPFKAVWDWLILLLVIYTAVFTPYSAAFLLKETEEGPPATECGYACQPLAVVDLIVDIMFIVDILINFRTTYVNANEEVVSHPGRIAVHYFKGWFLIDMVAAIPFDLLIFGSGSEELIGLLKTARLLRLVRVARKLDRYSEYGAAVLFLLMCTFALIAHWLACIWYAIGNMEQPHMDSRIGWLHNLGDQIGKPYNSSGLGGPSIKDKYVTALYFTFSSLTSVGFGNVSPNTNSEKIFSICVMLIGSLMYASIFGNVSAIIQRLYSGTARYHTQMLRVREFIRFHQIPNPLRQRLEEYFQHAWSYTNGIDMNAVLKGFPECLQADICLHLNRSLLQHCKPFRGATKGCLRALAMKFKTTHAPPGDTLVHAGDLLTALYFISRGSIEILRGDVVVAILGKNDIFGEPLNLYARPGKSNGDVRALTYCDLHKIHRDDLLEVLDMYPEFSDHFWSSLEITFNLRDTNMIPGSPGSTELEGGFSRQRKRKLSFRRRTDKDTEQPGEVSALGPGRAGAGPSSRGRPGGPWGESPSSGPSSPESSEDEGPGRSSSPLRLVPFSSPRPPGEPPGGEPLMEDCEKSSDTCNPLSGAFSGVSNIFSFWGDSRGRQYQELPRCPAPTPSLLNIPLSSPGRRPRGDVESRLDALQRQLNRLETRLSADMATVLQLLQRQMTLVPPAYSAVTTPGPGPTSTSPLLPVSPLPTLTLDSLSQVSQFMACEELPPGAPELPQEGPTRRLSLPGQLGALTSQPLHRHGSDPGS
# assay overview: Inhibition of human ERG by patch clamp assay
property name: IC20 (µM)
State just the number; it will be interpreted in µM.

Input line: Requested read-out: IC20. Entry: COc1cc2c(cc1OC)[C@@H]1C[C@H](N)[C@@H](N3C[C@@H](CF)CC3=O)CN1CC2
Output line: 21

----------
# assay overview: Clearance in cynomolgus monkey at 1 mg/kg, iv
# Format: ADME, organism-based, Macaca fascicularis
# Parameters: dose 1 mg/kg, route intravenous
# assay setup: in vivo
property name: clearance (mL/min/kg)

I. COc1cc2c(cc1OC)[C@@H]1C[C@H](N)[C@@H](N3C[C@@H](CF)CC3=O)CN1CC2
II. COc1cc2c(cc1OC)[C@@H]1C[C@H](N)[C@@H](N3CCCCC3=O)CN1CC2
Input line: Just tell me: smaller clearance value, I or II ? Identify your selection by its label.
Output line: I
(I: 8.5 mL/min/kg, II: 18.7 mL/min/kg)

----------
# assay overview: Permeability coefficient by PAMPA
# Format: ADME
property name: permeability (×10⁻⁶ cm/s)

1. COc1cc2c(cc1OC)C1CC(N)C(N3CCCC[S+]3[O-])CN1CC2 (centres undefined)
2. COc1cc2c(cc1OC)C1CC(N)C(N3CCC[S+]3[O-])CN1CC2 (centres undefined)
3. COc1cc2c(cc1OC)C1CC(N)C(N3CCCCC3=O)CN1CC2 (centres undefined)
4. COc1cc2c(cc1OC)[C@@H]1C[C@H](N)[C@@H](N3C[C@@H](CF)CC3=O)CN1CC2
Input line: // sort listed items: permeability descending List the labels in the requested order.
Output line: 2, 1, 3, 4
(2: 1.2 ×10⁻⁶ cm/s, 1: 0.7 ×10⁻⁶ cm/s, 3: 0.2 ×10⁻⁶ cm/s, 4: 0.13 ×10⁻⁶ cm/s)

----------
# assay overview: Distribution coefficient, log D at pH 7.4
# Type: physicochemical
# assay setup: octanol/water
property name: logD

{"compound": "COc1cc2c(cc1OC)C1CC(N)C(N3CCCC[S+]3[O-])CN1CC2 (stereo not given)", "property name": "logD", "recorded measurement": -0.4}

a. COc1cc2c(cc1OC)[C@@H]1C[C@H](N)[C@@H](N3C[C@H](CF)CC3=O)CN1CC2
b. COc1cc2c(cc1OC)[C@@H]1C[C@H](N)[C@@H](N3C[C@@H](C)CC3=O)CN1CC2
c. COc1cc2c(cc1OC)C1CC(N)C(N3CCOC3=O)CN1CC2 (stereo not given)
Input line: List the 3 entries from lowest logD to highest logD value. List the labels in the requested order.
Output line: c, a, b

1. COc1cc2c(cc1OC)[C@@H]1C[C@H](N)[C@@H](N3CCCCC3=O)CN1CC2
2. COc1cc2c(cc1OC)[C@@H]1C[C@H](N)[C@@H](N3C[C@H](C)CC3=O)CN1CC2
Input line: Just tell me: smaller logD value, 1 or 2 ? Identify your selection by its label.
Output line: 1
(1: -0.5, 2: -0.3)

a. COc1cc2c(cc1OC)C1CC(N)C(N3CCCC3=O)CN1CC2 (stereo not given)
b. COc1cc2c(cc1OC)C1CC(N)C(N3CCCOC3=O)CN1CC2 (stereo not given)
Input line: Just tell me: smaller logD value, a or b ? Identify your selection by its label.
Output line: b
(b: -0.9, a: -0.5)
